experimental.system: Leucyl-cystinyl aminopeptidase (Mus musculus)
experimental.details: inhibition of mouse IRAP aminopeptidase activity – biochemical, Leu-AMC fluorescence, cherry-picked samples, set 2, selectivity assay for ERAP1 modulator project, dose response (AID 743340)
run.conditions: purified IRAP, Leu-AMC cleavage fluorescence, 1 h
Inconclusive results are not listed. Activity calls are given as the source filed them.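 Rule for the calls: active = compounds whose fitted AC50 for signal loss is at most twice the top valid dose tested; inconclusive = flat curve with 30 to 70% inhibition, or poor fit; inactive = the rest.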
metric.name: AC50

Quote AC50 reported for CC(C)[C@@H](C(=O)N[C@@H](CCc1ccc(O)cc1)C(=O)O)N(C)C(=O)[C@H](CO)NC(=O)[C@@H](O)[C@H](N)CCCCCCCCl please.
0.0449 µM

Quote AC50 reported for CCCN(C)C[C@@H]1OCCCC[C@@H](C)Oc2ccc(NS(=O)(=O)c3ccc(C)cc3)cc2C(=O)N([C@H](C)CO)C[C@@H]1C please.
> 20 µM (inactive)

Quote AC50 reported for O=C(O)c1ccccc1NS(=O)(=O)c1cccc(-n2sc3ccccc3c2=O)c1 please.
> 22 µM (inactive)

Quote AC50 reported for CCCN(C)C[C@@H]1OCCCC[C@@H](C)Oc2ccc(NS(=O)(=O)c3c(C)noc3C)cc2C(=O)N([C@H](C)CO)C[C@@H]1C please.
> 20 µM (inactive)

Quote AC50 reported for CCCN(C)C[C@@H]1OCCCC[C@@H](C)Oc2ccc(NS(=O)(=O)c3ccc(OC)cc3)cc2C(=O)N([C@H](C)CO)C[C@@H]1C please.
11.2 µM
